assay.target: CcrM R350A (Caulobacter crescentus, UniProt P0CAW2 1-358, R350A)
Sequence (P0CAW2 whole entry R350A): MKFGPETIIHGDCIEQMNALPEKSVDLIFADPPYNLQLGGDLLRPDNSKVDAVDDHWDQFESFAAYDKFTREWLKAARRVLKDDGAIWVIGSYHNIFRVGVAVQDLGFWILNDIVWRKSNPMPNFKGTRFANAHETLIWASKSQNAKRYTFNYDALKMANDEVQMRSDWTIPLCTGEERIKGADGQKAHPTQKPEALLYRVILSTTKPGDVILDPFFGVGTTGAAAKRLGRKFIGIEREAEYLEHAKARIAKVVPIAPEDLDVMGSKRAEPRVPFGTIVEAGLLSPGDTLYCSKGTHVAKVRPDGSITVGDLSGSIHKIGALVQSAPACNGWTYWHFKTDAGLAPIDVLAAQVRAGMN
experiment.notes: fluorescence anisotropy; 30 uM SAH; Hill h = 1.3; apparent Kd, above tested range 0-1000 nM; Anisotropy: 10 nM FAM-DNA, 0-1000 nM protein, 30 uM SAH, 100 mM HEPES, 1 mM EDTA, 20 mM NaCl, pH 8, room temperature, 20 min; Trp fluorescence: same buffer plus 2 mM DTT, 500 nM protein, 60 uM sinefungin, 5 uM DNA
condition.info: protein: recombinant; chain copies: 2; label: 5' 6-FAM on strand 1; blunt
assay.endpoint: Kd (nM)
Answer in nM, number only, no unit symbol.

Annotate the binder C1-FAM (dsDNA, N6-methyl-A at position 14 (5' to 3') of strand 2 (hemimethylated)) DNA 1: TCACTGTACTCTGACTCGCCTGACATGAC DNA 2: GTCATGTCAGGCGAGTCAGAGTACAGTGA with its measured Kd.
2110
